target: Focal adhesion kinase 1 (Homo sapiens); assay: Inhibition of FAK (unknown origin) incubated for 50 mins in presence of substrate/ATP by HTRF assay
Readout: log10(IC50) (log10 of the value in nM)
Values below are the log10 of the recorded IC50, with nM as the unit.

Q: What value of log10(IC50) has been recorded for this entry: CP(C)(=O)c1ccccc1Nc1nc(Nc2ccc(C(=O)NCC3CCNCC3)cc2)ncc1Cl
A: 1.29

Q: What value of log10(IC50) has been recorded for this entry: CP(C)(=O)c1ccccc1Nc1nc(Nc2ccc(C(=O)N3CCC[C@H](N)C3)cc2)ncc1Cl
A: 2.56

Q: What value of log10(IC50) has been recorded for this entry: CP(C)(=O)c1ccccc1Nc1nc(Nc2ccc(C(=O)NC3CCNCC3)c(F)c2)ncc1Cl
A: 1.20

Q: What value of log10(IC50) has been recorded for this entry: CP(C)(=O)c1ccccc1Nc1nc(Nc2ccc(C(=O)NC3CCC(O)CC3)c(F)c2)ncc1Cl (centres undefined)
A: 1.18

Q: What value of log10(IC50) has been recorded for this entry: CP(C)(=O)c1ccccc1Nc1nc(Nc2ccc(C(=O)NC3CCC(O)CC3)cc2)ncc1Cl (centres undefined)
A: 0.98

Q: What value of log10(IC50) has been recorded for this entry: CP(C)(=O)c1ccccc1Nc1nc(Nc2ccc(C(=O)NC3CCNCC3)cc2F)ncc1Cl
A: 1.44

Q: What value of log10(IC50) has been recorded for this entry: CP(C)(=O)c1ccccc1Nc1nc(Nc2ccc(C(=O)N[C@@H]3CCNC3)cc2)ncc1Cl
A: 1.22

Q: What value of log10(IC50) has been recorded for this entry: CP(C)(=O)c1ccccc1Nc1nc(Nc2ccc(C(=O)N3CCOCC3)cc2)ncc1Cl
A: 2.55

Q: What value of log10(IC50) has been recorded for this entry: CP(C)(=O)c1ccccc1Nc1nc(Nc2ccc(C(=O)N3CCC[C@@H](N)C3)cc2)ncc1Cl
A: 2.38

* * *

target: Focal adhesion kinase 1 (Homo sapiens); experiment: Inhibition of GST-fused FAK (411 to 686 residues)(unknown origin) expressed in baculovirus expression system using poly(Glu:Tyr) as substrate incubated for 5 mins in presence of ATP by K-LISA screening assay
Readout: pIC50
Friendly reminder that pIC50 comes from taking -log10 of the concentration in mol/L.

Q: What value of pIC50 has been recorded for this entry: CNC(=O)c1ccccc1Nc1nc(Nc2ccc(N3CCOCC3)cc2OC)ncc1C(F)(F)F
A: 8.82

* * *

Kindly state IC50 for each of the entries shown.
biological target: Focal adhesion kinase 1 (Homo sapiens, UniProt Q05397); test: Inhibition of FAK (unknown origin) incubated for 50 mins in presence of substrate/ATP by HTRF assay
Sequence (Q05397 whole entry, the tested form may be a part): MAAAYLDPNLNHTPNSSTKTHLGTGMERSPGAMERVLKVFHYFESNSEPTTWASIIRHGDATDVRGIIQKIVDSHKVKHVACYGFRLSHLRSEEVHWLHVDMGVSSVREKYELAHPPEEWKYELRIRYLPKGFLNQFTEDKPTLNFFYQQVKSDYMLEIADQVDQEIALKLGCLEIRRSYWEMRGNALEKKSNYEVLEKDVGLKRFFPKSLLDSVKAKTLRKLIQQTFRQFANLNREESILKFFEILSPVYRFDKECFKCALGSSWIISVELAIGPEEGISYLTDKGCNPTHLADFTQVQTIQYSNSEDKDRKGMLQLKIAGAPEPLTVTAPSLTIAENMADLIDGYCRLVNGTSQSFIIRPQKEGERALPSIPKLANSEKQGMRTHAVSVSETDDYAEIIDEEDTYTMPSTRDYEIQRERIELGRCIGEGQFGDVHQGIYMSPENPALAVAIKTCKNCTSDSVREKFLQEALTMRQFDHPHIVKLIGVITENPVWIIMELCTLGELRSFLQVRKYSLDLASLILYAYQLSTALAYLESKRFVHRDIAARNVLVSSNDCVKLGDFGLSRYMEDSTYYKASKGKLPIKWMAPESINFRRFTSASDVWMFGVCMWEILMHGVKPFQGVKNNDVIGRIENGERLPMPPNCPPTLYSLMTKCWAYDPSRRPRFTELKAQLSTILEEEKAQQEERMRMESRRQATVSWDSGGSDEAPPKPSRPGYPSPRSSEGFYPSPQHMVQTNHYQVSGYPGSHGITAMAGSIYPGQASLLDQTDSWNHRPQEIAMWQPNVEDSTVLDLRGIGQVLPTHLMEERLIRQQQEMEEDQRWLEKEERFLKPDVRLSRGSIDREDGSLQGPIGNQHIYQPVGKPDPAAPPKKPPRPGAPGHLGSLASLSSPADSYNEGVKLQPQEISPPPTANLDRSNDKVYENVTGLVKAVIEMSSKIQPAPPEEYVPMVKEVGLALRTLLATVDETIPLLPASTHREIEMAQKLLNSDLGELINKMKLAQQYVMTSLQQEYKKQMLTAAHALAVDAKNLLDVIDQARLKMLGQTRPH
Write it as a number; the unit µM goes unstated.

Q: What value of IC50 on Focal adhesion kinase 1 (Homo sapiens, UniProt Q05397) does CN(C(=O)c1ccc(Nc2ncc(Cl)c(Nc3ccccc3P(C)(C)=O)n2)cc1)C1CCCNC1 (stereo not given) have?
A: 0.163

Q: What value of IC50 on Focal adhesion kinase 1 (Homo sapiens, UniProt Q05397) does CP(C)(=O)c1ccccc1Nc1nc(Nc2ccc(C(=O)NC3CCC(O)CC3)cc2F)ncc1Cl (stereo not given) have?
A: 0.0175

Q: What value of IC50 on Focal adhesion kinase 1 (Homo sapiens, UniProt Q05397) does CP(C)(=O)c1ccccc1Nc1nc(Nc2ccc(C(=O)N[C@H]3CCNC3)cc2)ncc1Cl have?
A: 0.0143

Q: What value of IC50 on Focal adhesion kinase 1 (Homo sapiens, UniProt Q05397) does Cc1cc(C(=O)NC2CCC(O)CC2)ccc1Nc1ncc(Cl)c(Nc2ccccc2P(C)(C)=O)n1 (stereo not given) have?
A: 0.0317

Q: What value of IC50 on Focal adhesion kinase 1 (Homo sapiens, UniProt Q05397) does CN(C(=O)c1ccc(Nc2ncc(Cl)c(Nc3ccccc3P(C)(C)=O)n2)cc1)C1CCNCC1 have?
A: 0.119

Just for reference, ChEMBL document CHEMBL5329207 is where these values come from.
